Exercise: for every item that follows, state its recorded growth inhibition.
experiment: NCI Yeast Anticancer Drug Screen. Data for the rad50 strain (AID 155);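 also: 0% = growth of vehicle-only cultures of the same strain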; conditions: S. cerevisiae rad50 strain growth inhibition; at 50.0 µM; stronger effect = higher value
Compounds without any hit were thinned out: in the full panel of roughly 79,000, 15% have a hit.
Entry rule: numbers only, all in %.

Prompt: Name the recorded growth inhibition for CCN(CC)CC .
Response: -8.4

Prompt: Name the recorded growth inhibition for CS(=O)(=O)N1C=CC2C(C=C1)C1(c3ccccc3)OC2(c2ccccc2)c2ccccc21 (stereo not drawn) .
Response: -9.75

Prompt: Name the recorded growth inhibition for COc1ccc2c(c1O)C1(CCN(C)C)CC(=O)CCC1C=C2 (stereo not drawn) .
Response: 13.2

Prompt: Name the recorded growth inhibition for CCC(=O)Oc1ccccc1C(C)C .
Response: 9.8

Prompt: Name the recorded growth inhibition for C[n+]1ccc(Nc2ccc(NC(=O)c3ccc(N)cc3)cc2)cc1 .
Response: 12.9

Prompt: Name the recorded growth inhibition for N#CCCN1CCCC1=O .
Response: -11.8

Prompt: Name the recorded growth inhibition for O=C(O)CCC(=O)c1ccc(O)cc1 .
Response: -0.2

Prompt: Name the recorded growth inhibition for [N-]=[N+]=Nc1nc2c(N)ncnc2n1C1OC(CO)C(O)C1O (stereo not drawn) .
Response: 23.4

Prompt: Name the recorded growth inhibition for C/C(=N/O)c1cccc([N+](=O)[O-])c1 .
Response: -10.7

Prompt: Name the recorded growth inhibition for Cc1ccc(S(=O)(=O)N/N=C(\c2nc3ccc([N+](=O)[O-])cc3[nH]c2=O)C(O)c2ccccc2Cl)cc1 (stereo not drawn) .
Response: -1.2

Prompt: Name the recorded growth inhibition for CCC(=O)c1cccc(-c2ccccc2)c1C .
Response: 7

Prompt: Name the recorded growth inhibition for COc1ccc(C(=O)O/N=C2/CCC/C2=C\c2ccccc2)cc1 .
Response: 13.8

Prompt: Name the recorded growth inhibition for CCCCC(CC)CCC(C)=O (stereo not drawn) .
Response: 5.8
